- Test system: NCI-H716 cells
- method: cells
- Format: cell-based, Human
- experimental-setup: Homo sapiens; IC50 / EC50; NCI-H716; read-out: GLP 1 Secretion
pEC50: −log10 of the molar value.

compound: NCCNc1ccc(NCCN)c2c1C(=O)c1ccncc1C2=O [pixantrone]
pEC50: < 5.00

compound: CC(C)=CCNc1ncnc2c1ncn2[C@@H]1O[C@H](CO)[C@@H](O)[C@H]1O [Riboprine]
pEC50: < 5.00

compound: Cc1c(C)n(CCN(C)C)c2ccc(C(=O)OCCN(C)C)cc12 [Amindocate]
pEC50: 5.92

compound: CCCCCCCCCCCCCCCC[N+](C)(C)Cc1ccccc1 [Cetalkonium chloride]
pEC50: < 5.00

compound: CCCCC1C(=O)N(c2ccccc2)N(c2ccc(O)cc2)C1=O (centres unmarked) [Oxyphenbutazone]
pEC50: < 5.00

compound: CN(C)CCOC(c1ccccc1)c1ccc(Br)cc1 (centres unmarked) [Bromazine]
pEC50: < 5.00

compound: COc1cccc2c1C(=O)c1c(O)c3c(c(O)c1C2=O)C[C@@](O)(C(C)=O)C[C@@H]3O[C@H]1C[C@H](N)[C@H](O)[C@H](C)O1 [Daunorubicin]
pEC50: < 5.00

compound: NC(=O)C1(N2CCCCC2)CCN(CCCN2c3ccccc3CCc3ccc(Cl)cc32)CC1 [Clocapramine]
pEC50: 4.74
